Tested on: AncSZ
Assay: phosphorylation enrichment, bacterial display (enrichment ratio); higher = better substrate or ligand; peptides without Tyr show the background
Readout kind: phosphorylation enrichment
Numbers only.

Exercise: Please tell me the measured phosphorylation enrichment for NHYKIHNLCAE [PTEN_Y68_Y68H] ; system: AncSZ.
Key: 0.593

Exercise: Please tell me the measured phosphorylation enrichment for QAINEYEKWLE [MAP9_Y603] ; system: AncSZ.
Key: 2.34

Exercise: Please tell me the measured phosphorylation enrichment for MDFRSYPHEFG [RBM10_Y44_R46H_YF] ; system: AncSZ.
Key: 0.64

Kindly give each listed record's phosphorylation enrichment.
1. ARDVIYIIIPA [FRKtide_2014]
2. YHIDHYLGKEM [G6PD_Y202_R198H]
3. AAVPAYDKIRV [STXBP2_Y401]
4. LSAPEYGPKLK [TBC1D14_Y46]
5. RHLLRYLSWTV [CLCNKB_Y93_S88R]

Key:
1. 1.31
2. 0.599
3. 0.64
4. 0.592
5. 0.883

Kindly give each listed record's phosphorylation enrichment.
1. LRVHSYKSMQP [DRC7_Y516]
2. VLPIDYFFPPQ [AR_Y552_YF]
3. EKLQQYIAPGM [EPHB3_Y600]
4. DLDTEYGSGYP [RNASEH2A_Y206_D205E]
5. ANNEFYFQVCA
6. LGGSPYPSVPV [FGFR1_Y701_G703S]
7. SLDLSYYHTSS [EMD_Y181_P183H]

Key:
1. 0.797
2. 2.91
3. 0.589
4. 1.23
5. 1.26
6. 1.04
7. 1.05

Kindly give each listed record's phosphorylation enrichment.
1. TVLEPYTDPYY [ZC3H18_Y367_A368T]
2. PELINYHQHNF [BTK_Y361_S366F]
3. PIDLFYLMDLS [ITGB2_Y131_YF]
4. VEDDMYRKTCT [XPA_Y257_L252V]
5. RSRQIYDAYIM [GRK3_Y109]

Key:
1. 1.2
2. 1.04
3. 1.61
4. 1.33
5. 0.914

Kindly give each listed record's phosphorylation enrichment.
1. TFRPPYYHRDC [HGD_Y333_N337D]
2. VRFTEYETQVK [TARDBP_Y155]
3. SVTCTYSPAFN [TP53_Y126_L130F]

Key:
[1.17, 0.791, 1.35]

----------
Tested on: c-Abl (mouse)
Assay: phosphorylation enrichment, bacterial display (enrichment ratio); higher = better substrate or ligand; peptides without Tyr show the background
Readout kind: phosphorylation enrichment
Give bare numbers.

Exercise: Please give the documented phosphorylation enrichment of TDLAYYLVRKG [ASL_Y376]
Key: 0.672

Exercise: Please give the documented phosphorylation enrichment of KEKLCYVAPDF [ACTA1_Y220_L223P]
Key: 5.43

Exercise: Please give the documented phosphorylation enrichment of KVGPGYLGSRG [RET_Y826_G830R]
Key: 0.444

Kindly give each listed record's phosphorylation enrichment.
1. IGLHAYGDQYR [IDH1_Y135_R132L]
2. VITDFYVDMKF [MPP4_Y567_YF]

Key:
0.561
0.727

Kindly give each listed record's phosphorylation enrichment.
1. MFKPMYALFRT [HUWE1_Y4078_N4075K]
2. PLQKTYNFNML [SLC4A1_Y553_V557M_YF]
3. MYDKEYYSVHN [MET_Y1234]
4. TENAGYYFQVS
5. RGFRVYFTPDS [PTPRF_Y450_YF]
6. NELTYYCCKKD [CD59_Y87]
7. ERLWDCGMSSS [F8_Y1728_Y1728C]

Key:
1: 1.85; 2: 0.63; 3: 1.05; 4: 0.983; 5: 1.2; 6: 1.48; 7: 0.49

Kindly give each listed record's phosphorylation enrichment.
1. PSNTDYPGPHS [TP63_Y171]
2. ADARMYGVLLW [PLP1_Y207_P211L]

Key:
1. 1.01
2. 0.741

----------
So I've got a bunch of sequences here, and I need their SH2 binding enrichment values.
Biological target: Grb2 SH2 (UniProt P62993)
Sequence (P62993 whole entry, looked up): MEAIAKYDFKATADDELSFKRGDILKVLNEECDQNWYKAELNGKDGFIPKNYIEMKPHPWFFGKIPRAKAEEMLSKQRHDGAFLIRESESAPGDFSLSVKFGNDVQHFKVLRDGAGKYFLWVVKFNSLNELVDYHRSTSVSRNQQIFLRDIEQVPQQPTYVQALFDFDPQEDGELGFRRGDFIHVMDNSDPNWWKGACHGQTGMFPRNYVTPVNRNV
Assay: SH2 binding enrichment of the phosphorylated peptide, bacterial display (enrichment ratio); higher = better substrate or ligand; peptides without Tyr show the background
Answers are plain numbers.

// worked examples, SH2 binding enrichment included
Exercise: Please give the documented SH2 binding enrichment of IAINKYGVSLI [MYO7A_Y2136]
Key: 0.946

Exercise: Please give the documented SH2 binding enrichment of CERLPYDANKW [FLT1_Y815_S818N]
Key: 0.619

Exercise: Please give the documented SH2 binding enrichment of RGKDNYETSQL [SPP1_Y225_S224N]
Key: 0.681

Kindly give each listed record's SH2 binding enrichment.
1. ANFAKYGNPNE [BCHE_Y505]
2. SSSPTYLDLPF [GLI3_Y168_P169L]
3. ANFTEYVATSW [CDKL5_Y171_R175S_YF]
4. FEGAIYRKDVG [GART_Y417]

Key:
1: 0.784; 2: 0.786; 3: 0.757; 4: 0.664

Kindly give each listed record's SH2 binding enrichment.
1. SMAKFYASEIA [ACADSB_Y373_YF]
2. ATPKGYERDAS [OTC_Y223_P225R]
3. SHPSSYTTHPQ [NIPBL_Y195]

Key:
[0.788, 0.767, 0.728]

Kindly give each listed record's SH2 binding enrichment.
1. ERLWDCGMSSS [F8_Y1728_Y1728C]
2. DSDTDYGSGFP [RNASEH2A_Y206_L202S_YF]
3. IPGVEYLVSII [TNC_Y1775]
4. TEDELYQLFLQ [RASGRP2_Y378_S381F]
5. SGSFRYGSSCE [SELE_Y390]
6. VIEFSYTSADG [DHCR7_Y382_C380Y_YF]
7. FGFPGYQCKHF [TIMP3_Y177_S179C_YF]
8. IVRSLYKDLED [VHL_Y185_E186K]

Key:
1: 1.15; 2: 0.705; 3: 1; 4: 0.633; 5: 0.748; 6: 0.87; 7: 1.37; 8: 0.999

Kindly give each listed record's SH2 binding enrichment.
1. SLGKGYYDGGC [MC4R_Y35_S36Y]
2. SLKEFYGEDAK [ALDH3A1_Y272]
3. SETSRYLSELF [KCNJ3_Y67_D70E]

Key:
1: 0.741; 2: 0.916; 3: 0.883

----------
Target: FGFR3 (UniProt P22607)
Sequence (P22607 whole entry, looked up): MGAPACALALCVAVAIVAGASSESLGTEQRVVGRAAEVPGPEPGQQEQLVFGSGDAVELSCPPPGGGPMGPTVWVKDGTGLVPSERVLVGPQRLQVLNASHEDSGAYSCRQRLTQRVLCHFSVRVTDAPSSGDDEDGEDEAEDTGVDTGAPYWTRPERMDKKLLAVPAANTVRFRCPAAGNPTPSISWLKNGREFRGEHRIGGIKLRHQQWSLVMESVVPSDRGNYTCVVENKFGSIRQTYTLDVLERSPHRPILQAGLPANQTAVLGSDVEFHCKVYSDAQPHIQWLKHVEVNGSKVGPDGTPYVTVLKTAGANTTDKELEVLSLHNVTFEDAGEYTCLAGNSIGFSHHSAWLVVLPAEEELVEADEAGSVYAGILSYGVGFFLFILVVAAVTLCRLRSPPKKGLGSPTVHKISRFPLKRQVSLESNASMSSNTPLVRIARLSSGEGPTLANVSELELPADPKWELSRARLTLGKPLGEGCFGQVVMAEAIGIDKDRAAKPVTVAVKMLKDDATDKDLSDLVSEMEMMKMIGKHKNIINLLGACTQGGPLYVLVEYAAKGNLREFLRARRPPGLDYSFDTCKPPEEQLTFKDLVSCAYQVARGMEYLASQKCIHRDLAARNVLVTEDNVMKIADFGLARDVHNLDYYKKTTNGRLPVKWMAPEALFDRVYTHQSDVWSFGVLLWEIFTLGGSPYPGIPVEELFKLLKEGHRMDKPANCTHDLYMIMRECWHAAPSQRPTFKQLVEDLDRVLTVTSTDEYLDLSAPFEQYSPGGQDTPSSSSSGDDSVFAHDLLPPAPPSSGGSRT
Assay: phosphorylation enrichment, bacterial display (enrichment ratio); higher = better substrate or ligand; peptides without Tyr show the background
Criterion: phosphorylation enrichment meeting or surpassing 0.9. Met: Fulfilled. Not met: Not fulfilled.

Solved cases (5 shown):
Exercise: Evaluate LPKEQYLCTKE [AFG3L2_Y614_Y616C] : phosphorylation enrichment at minimum 0.9?
Key: Not fulfilled

Exercise: Evaluate DKITQYVEEVR [STX2_Y49_K54R] : phosphorylation enrichment at minimum 0.9?
Key: Not fulfilled

Exercise: Evaluate CSRHFYQLTKL [AR_Y858_R856H] : phosphorylation enrichment at minimum 0.9?
Key: Not fulfilled

Exercise: Evaluate EFEGLYQEGGG [TMEM159_Y159] : phosphorylation enrichment at minimum 0.9?
Key: Not fulfilled

Exercise: Evaluate LFQAKYQIRYR [CRLF1_Y272] : phosphorylation enrichment at minimum 0.9?
Key: Not fulfilled

Next:
Exercise: Evaluate HCFNSYTFPRL [PAK7_Y316_S312C_YF] : phosphorylation enrichment at minimum 0.9?
Key: Fulfilled

Exercise: Evaluate PRDSGYSFETI [MAP1B_Y1921_S1917R_YF] : phosphorylation enrichment at minimum 0.9?
Key: Fulfilled

Exercise: Evaluate KTVQDYLKKFY [MMP8_Y36_E38K] : phosphorylation enrichment at minimum 0.9?
Key: Not fulfilled

Exercise: Evaluate YQKDVYNIPPS [NEDD9_Y177_D178N] : phosphorylation enrichment at minimum 0.9?
Key: Not fulfilled

Exercise: Evaluate QMVGMYAFSYM [AVPR2_Y124_S126F] : phosphorylation enrichment at minimum 0.9?
Key: Fulfilled

Exercise: Evaluate FETVKYINNER [ABCB7_Y345_F346I_YF] : phosphorylation enrichment at minimum 0.9?
Key: Not fulfilled

Exercise: Evaluate LFSNAYLNDLA [ALDH1A1_Y119_YF] : phosphorylation enrichment at minimum 0.9?
Key: Fulfilled

----------
Tested on: c-Src
Assay: phosphorylation enrichment, bacterial display (enrichment ratio); higher = better substrate or ligand; peptides without Tyr show the background
So I've got a bunch of sequences here, and I need their phosphorylation enrichment values.
Give bare numbers.

Exercise: Please tell me the measured phosphorylation enrichment for RSDEDYLCREE [POR_Y573_Y575C] ; system: c-Src.
Key: 0.765

Exercise: Please tell me the measured phosphorylation enrichment for PFTRNYYVQAV [CYBA_Y87_R90Q] ; system: c-Src.
Key: 0.615

Exercise: Please tell me the measured phosphorylation enrichment for GKGGSYSQAAC [HLA-B_Y344] ; system: c-Src.
Key: 0.396

Exercise: Please tell me the measured phosphorylation enrichment for IEPCIYIPEDD [XPNPEP3_Y455_G453C] ; system: c-Src.
Key: 0.513

Exercise: Please tell me the measured phosphorylation enrichment for VNTMLYEKFTY [TEK_Y1108_T1106M] ; system: c-Src.
Key: 5.53

Kindly give each listed record's phosphorylation enrichment.
1. FNDSAYNQQLI [ZPLD1_Y198_T197A_YF]
2. KSPDSYQKILF [ATM_Y1415_L1420F]

Key:
1. 0.421
2. 0.632
